# assay.comment: duplex melting temperature (HRM, EvaGreen); higher = more stable duplex
# experimental.conditions: duplex concentration 5 µM; backbone: PS-PO (listed strand fully phosphorothioate, complement phosphodiester)
Short version: duplex melting temperature at least 60 °C is 1 (yes), less is 0 (no).

INSERT INTO measurements (seq_string, class_name) VALUES
  ('TCTCGCGGTTCCATTA', '1 (yes)'),
  ('TCTACACCGCGA', '0 (no)'),
  ('GAGCAGAAGGGGTTGT', '1 (yes)'),
  ('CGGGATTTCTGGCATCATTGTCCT', '1 (yes)'),
  ('CACAGCGACATGTATGG', '1 (yes)');

[ask] Reported duplex melting temperature at or above 60 °C? GCAGGAGCCGCGACCTG
[reply] 1 (yes)

[ask] Reported duplex melting temperature at or above 60 °C? GTGGTACAAATGCGACC
[reply] 1 (yes)

[ask] Reported duplex melting temperature at or above 60 °C? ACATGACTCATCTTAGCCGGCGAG
[reply] 1 (yes)

---

# assay.comment: duplex melting temperature (HRM, EvaGreen); higher = more stable duplex
# experimental.conditions: duplex concentration 2.5 µM; backbone: PS-PS (both strands fully phosphorothioate)
For each record, write down the corresponding duplex melting temperature.
Numbers only, in °C.

// for each sequence in input: emit duplex melting temperature
1. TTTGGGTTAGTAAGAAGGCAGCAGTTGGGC
2. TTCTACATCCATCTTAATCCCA
3. ATAACTTACTCTCGCCT
4. CTAAACTGTTATAGCCGG
5. GCGGTTGGTGGCCAAC
6. ACTCGCTCTACCTTAAT
7. GAGGCAGCCGCGACCTG
8. CTACCAGCGGCGCCGTT

[reply]
1. 66.6
2. 52.2
3. 50.7
4. 49
5. 59.6
6. 50.2
7. 66.3
8. 66.5

// for each sequence in input: emit duplex melting temperature
1. CGGTGCTTTTGGTAGC
2. GTGGTACAAATGCGACC
3. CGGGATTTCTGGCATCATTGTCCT

[reply]
1: 51.6; 2: 52.9; 3: 61.9

// for each sequence in input: emit duplex melting temperature
1. GAGCAGAAGGGGTTGT
2. AGAGCGCCCTGCTGCC
3. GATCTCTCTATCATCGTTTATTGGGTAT
4. AATGAGGAGTGAAATGG

[reply]
[53.7, 64.3, 57.1, 48.6]

// for each sequence in input: emit duplex melting temperature
1. TTGAAAACCCATGTGC
2. ACGGGTCGTTCCGTG
3. CTCGGAGGCCCCATTTA
4. CCCAGGCCTCGGATTTA

[reply]
47.5
56.1
59.3
59.8

---

For each record, write down the corresponding duplex melting temperature.
# assay.comment: duplex melting temperature (HRM, EvaGreen); higher = more stable duplex
# experimental.conditions: duplex concentration 15 µM; backbone: PS-PS (both strands fully phosphorothioate)

INSERT INTO results (seq_string, measured_metric, value) VALUES
  ('GATGCCGCAGCGACCTG', 'duplex melting temperature', '69.3 °C'),
  ('GCCCGAGCATGACTGCG', 'duplex melting temperature', '66.1 °C'),
  ('TCTCGCGGTTCCATTA', 'duplex melting temperature', '60.8 °C');

// for each sequence in input: emit duplex melting temperature
1. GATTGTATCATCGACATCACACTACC
2. CCGTTGCTGCTAGG
3. GGTTGCGGTGGCCAAC

[reply]
["62.5 °C", "60.5 °C", "54.3 °C"]
